Reference for the values: ChEMBL document CHEMBL3856250

# experiment.summary: Aqueous solubility of the compound
# Type: physicochemical
# condition.label: aqueous medium

compound	solubility
Cc1c(-c2c(F)cc(C(N)=O)c3[nH]c4c(c23)CC[C@H](C(C)(C)O)C4)cccc1-n1c(=O)c2cccc(F)c2n(C)c1=O (atropisomer R)	< 4 µg/mL

---

# experiment.summary: Protein binding in dog plasma
# Assay type: ADME, cell-free, Canis lupus familiaris
# condition.label: read-out: PPB (converted)

compound	fraction unbound
Cc1c(-c2c(F)cc(C(N)=O)c3[nH]c4c(c23)CC[C@H](C(C)(C)O)C4)cccc1-n1c(=O)c2cccc(F)c2n(C)c1=O (atropisomer R)	0.009

---

# experiment.summary: Cmax in mouse at 6 mg/kg, po
# Format: ADME, organism-based
# Parameters: dose 6 mg/kg, route oral
# condition.label: in vivo

compound	reading.unit	Cmax
Cc1c(-c2c(F)cc(C(N)=O)c3[nH]c4c(c23)CC[C@H](C(C)(C)O)C4)cccc1-n1c(=O)c2cccc(F)c2n(C)c1=O (atropisomer R) [BMS-986142]	µM	4.9

---

Overview of recorded fraction unbound for various compounds
# experiment.summary: Protein binding in human serum
# Format: ADME
# condition.label: read-out: PPB (converted)
measure: fraction unbound

compound	modifier.sign	val
Cc1c(-c2c(F)cc(C(N)=O)c3[nH]c4c(c23)CC[C@H](C(C)(C)O)C4)cccc1-n1c(=O)c2cccc(F)c2n(C)c1=O (atropisomer R)	=	0.009
Cc1c(-c2ccc(C(N)=O)c3[nH]c4cc(C(C)(C)O)ccc4c23)cccc1-n1c(=O)c2cccc(F)c2n(C)c1=O	<	0.01

---

# experiment.summary: Protein binding in mouse plasma
# Assay type: ADME, cell-free
# condition.label: read-out: PPB (converted)
measure: fraction unbound

molecule	measure	val
Cc1c(-c2c(F)cc(C(N)=O)c3[nH]c4c(c23)CC[C@H](C(C)(C)O)C4)cccc1-n1c(=O)c2cccc(F)c2n(C)c1=O (atropisomer R)	fraction unbound	0.015

---

# experiment.summary: Permeability of the compound at pH 7.4 by PAMPA assay
# Assay type: ADME
# condition.label: read-out: permeability
measure: Papp (×10⁻⁶ cm/s)

compound	val
Cc1c(-c2c(F)cc(C(N)=O)c3[nH]c4c(c23)CC[C@H](C(C)(C)O)C4)cccc1-n1c(=O)c2cccc(F)c2n(C)c1=O (atropisomer R) [BMS-986142]	72.5

---

# experiment.summary: Volume of distribution at steady state in dog at 1 mg/kg, iv
# Format: ADME, organism-based, Canis lupus familiaris
# condition.label: in vivo, read-out: Vdss

compound	Vd
Cc1c(-c2c(F)cc(C(N)=O)c3[nH]c4c(c23)CC[C@H](C(C)(C)O)C4)cccc1-n1c(=O)c2cccc(F)c2n(C)c1=O (atropisomer R) [BMS-986142]	3.4 L/kg

---

# experiment.summary: Protein binding in rat plasma
# Format: ADME, cell-free
# condition.label: read-out: PPB (converted)
measure: fraction unbound

compound	val
Cc1c(-c2c(F)cc(C(N)=O)c3[nH]c4c(c23)CC[C@H](C(C)(C)O)C4)cccc1-n1c(=O)c2cccc(F)c2n(C)c1=O (atropisomer R) [BMS-986142]	0.017

---

# test.system: UniProt P10632
# Sequence (P10632 whole entry): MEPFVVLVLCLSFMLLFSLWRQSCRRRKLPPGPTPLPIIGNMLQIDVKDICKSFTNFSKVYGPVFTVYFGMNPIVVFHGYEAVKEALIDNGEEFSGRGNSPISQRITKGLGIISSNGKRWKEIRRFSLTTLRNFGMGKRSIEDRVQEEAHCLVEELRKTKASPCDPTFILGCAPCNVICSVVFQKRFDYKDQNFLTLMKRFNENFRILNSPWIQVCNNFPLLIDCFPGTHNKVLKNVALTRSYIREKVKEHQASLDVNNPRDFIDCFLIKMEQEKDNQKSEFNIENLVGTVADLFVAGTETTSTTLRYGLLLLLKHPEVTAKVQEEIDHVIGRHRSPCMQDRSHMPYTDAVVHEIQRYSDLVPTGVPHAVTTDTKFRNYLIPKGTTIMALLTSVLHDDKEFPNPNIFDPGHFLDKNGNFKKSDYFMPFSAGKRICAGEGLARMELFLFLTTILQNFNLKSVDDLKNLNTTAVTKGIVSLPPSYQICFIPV
pIC50: −log10 of the molar value.

compound	pIC50
Cc1c(-c2c(F)cc(C(N)=O)c3[nH]c4c(c23)CC[C@H](C(C)(C)O)C4)cccc1-n1c(=O)c2cccc(F)c2n(C)c1=O (atropisomer R) [BMS-986142]	5.59
